Data origin: the supplement of paper PMC10127200

System: A549
TEST_DETAILS: Euclidean distance of Cell Painting phenotypic profile (signed KS, 77 features) to DMSO centroid (dimensionless distance); 5 or 10 uM (library dependent); higher = stronger phenotypic change vs DMSO (phenoactivity)
CONDITIONS_USED: 48 h
Where a name gives a salt, the structure may show the parent alone.
MEASUREMENT_NAME: Euclidean distance
Number only, no unit.

# value of Euclidean distance, A549, item N=C(N)Nc1ccc(C(=O)Oc2ccc3cc(C(=N)N)ccc3c2)cc1 [Nafamostat Mesylate] = 1.62

Hey, A549 data for "Cc1cccc(C)c1N(CC(=O)Nc1ccc(-c2ncon2)cc1)C(=O)C1CCS(=O)(=O)CC1" : Euclidean distance came out at 0.772

The reported Euclidean distance value, A549, for COc1ccc2cc3[n+](cc2c1OC)CCc1cc2c(cc1-3)OCO2 [Berberine] reads 1.85

Field Euclidean distance (system: A549) for entry "C[C@H]1O[C@@H](n2cc(F)c(=O)[nH]c2=O)[C@H](O)[C@@H]1O" = 1.07

Param item: "C=CC(=O)Nc1cc(Nc2nccc(-n3cc(CN(C)C)c(-c4ccccc4)n3)n2)c(OC)cc1N1CCOCC1" ; param system: A549; output Euclidean distance: 1.76

The reported Euclidean distance value, A549, for "N[C@@H]1c2cccnc2[C@H](OC(=O)N2CCC(n3c(=O)[nH]c4ncccc43)CC2)CC[C@H]1c1cccc(F)c1F" reads 0.68

Record for Nc1ncnc2c1c(-c1cccc(OCc3ccccc3)c1)cn2C1CC(CN2CCCC2)C1 (centres undefined) under target or system A549: Euclidean distance reported as 3.18

Reading of Euclidean distance for "COc1cc2ccc(=O)oc2cc1O" with A549: 0.713

Query CCOCC(O)COc1ccc(NC(=O)CC[S+](C)C)cc1 (centres undefined) [Suplatast Tosylate] on A549; Euclidean distance returned: 1.01

Entry O=C1CN2Cc3c(ccc(Cl)c3Cl)N=C2N1 [Anagrelide HCl] : Euclidean distance on A549 = 0.869

Measured on A549, "Cc1nnc(C(=O)NC(C)(C)c2nc(C(=O)NCc3ccc(F)cc3)c(O)c(=O)n2C)o1" has a documented Euclidean distance of 0.695

// returns Euclidean distance for "O=C(/C=C/c1cccc(S(=O)(=O)Nc2ccccc2)c1)NO" with A549; value = 2.39

GET /values?item= CCCc1ncc(C[n+]2ccccc2C)c(N)n1 [Amprolium HCl] &system= A549 returns Euclidean distance: 0.883

// assay A549, entry COC1=CC(c2cc3ccccc3[nH]2)=N/C1=C\c1[nH]c(C)cc1C [Obatoclax Mesylate (GX15-070)] , Euclidean distance value = 4.59
